# Assay system: human recombinant EGFR L858R/T790M (Homo sapiens, UniProt P00533, L858R/T790M)
# Sequence (P00533 25-1210 T790M/L858R): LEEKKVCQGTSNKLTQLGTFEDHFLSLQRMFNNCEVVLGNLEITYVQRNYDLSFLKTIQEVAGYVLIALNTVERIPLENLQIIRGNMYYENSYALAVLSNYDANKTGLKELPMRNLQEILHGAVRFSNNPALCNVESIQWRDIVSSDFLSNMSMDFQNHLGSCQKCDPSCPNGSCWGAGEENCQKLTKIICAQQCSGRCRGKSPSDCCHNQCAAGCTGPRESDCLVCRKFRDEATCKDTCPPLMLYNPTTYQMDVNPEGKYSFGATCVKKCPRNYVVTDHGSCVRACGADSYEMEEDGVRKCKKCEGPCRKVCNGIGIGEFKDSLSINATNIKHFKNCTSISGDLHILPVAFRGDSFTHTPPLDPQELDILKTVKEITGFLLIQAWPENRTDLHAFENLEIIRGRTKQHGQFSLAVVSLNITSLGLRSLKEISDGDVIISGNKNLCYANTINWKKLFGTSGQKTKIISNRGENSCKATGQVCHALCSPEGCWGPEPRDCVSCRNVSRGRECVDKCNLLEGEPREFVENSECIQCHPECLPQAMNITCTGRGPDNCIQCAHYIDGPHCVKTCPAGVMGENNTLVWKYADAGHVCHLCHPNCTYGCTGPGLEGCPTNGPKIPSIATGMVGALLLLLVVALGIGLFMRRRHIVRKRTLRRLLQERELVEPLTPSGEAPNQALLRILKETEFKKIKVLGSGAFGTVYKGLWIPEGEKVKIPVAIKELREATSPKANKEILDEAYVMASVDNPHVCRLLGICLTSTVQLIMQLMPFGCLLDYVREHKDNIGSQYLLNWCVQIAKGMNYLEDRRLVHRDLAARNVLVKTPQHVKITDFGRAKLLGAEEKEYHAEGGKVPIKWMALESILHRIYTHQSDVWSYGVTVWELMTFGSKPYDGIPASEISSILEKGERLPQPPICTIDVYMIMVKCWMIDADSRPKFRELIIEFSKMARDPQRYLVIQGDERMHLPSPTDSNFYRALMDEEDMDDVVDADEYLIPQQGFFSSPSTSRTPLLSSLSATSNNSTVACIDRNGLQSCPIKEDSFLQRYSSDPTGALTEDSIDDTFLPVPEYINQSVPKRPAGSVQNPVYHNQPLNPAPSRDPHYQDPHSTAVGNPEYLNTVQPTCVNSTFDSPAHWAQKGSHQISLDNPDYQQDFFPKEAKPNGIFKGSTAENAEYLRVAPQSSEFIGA
# Assay comment: EGFR biochemical kinetics assay (PhosphoSens Kinase Assay), Ki
Assay readout: Ki (nM)
Output spec: scalar in nM, unitless text.

For C#Cc1c(-c2cnc3ccccc3c2)c2c(N)ncnc2n1C12CCC(NC(=O)c3cnc(C)cn3)(CC1)C2 , what is its reported Ki?
0.224

====

# Assay comment: Assessment of brain penetrability in mice (plasma and brain PK)
# Format: in vivo
# Run conditions: BALB/cAJcl-nu/nu, mouse, plasma; 20 mg/kg single oral, male nude mice; read-out: AUC0-24 hr Plasma
Assay readout: AUC(0-t) (µM·h)
Give a bare numeral; the unit µM·h is implied.

Bench note: what AUC(0-t) did C#Cc1c(-c2cnc3ccccc3c2)c2c(N)ncnc2n1C12CCC(NC(=O)c3cnc(C)cn3)(CC1)C2 show?
72.5
